target: Neuropeptide Y receptor type 1 (Homo sapiens, UniProt P25929); assay: Displacement of [3H]UR-MK114 from human neuropeptide Y receptor type 1 expressed in human MCF7 cells; assay type: cell-based
Sequence (P25929 whole entry): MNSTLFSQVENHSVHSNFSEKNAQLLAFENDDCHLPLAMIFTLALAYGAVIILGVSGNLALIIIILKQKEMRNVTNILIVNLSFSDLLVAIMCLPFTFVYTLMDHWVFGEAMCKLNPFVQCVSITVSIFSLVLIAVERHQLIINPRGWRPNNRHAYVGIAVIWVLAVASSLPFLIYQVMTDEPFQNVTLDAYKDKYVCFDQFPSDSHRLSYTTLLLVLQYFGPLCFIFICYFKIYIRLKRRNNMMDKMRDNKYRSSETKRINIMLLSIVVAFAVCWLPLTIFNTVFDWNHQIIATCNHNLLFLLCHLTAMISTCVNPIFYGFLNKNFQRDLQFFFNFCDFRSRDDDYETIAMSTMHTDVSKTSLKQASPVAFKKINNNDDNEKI
endpoint-name: Ki (nM)
Answers are plain numbers, in nM.

Field: example entries. Status: answers known.
[[record]]
molecular_string = "NCCN(CCNC(=O)CCC(=O)NCCOCCOCCNC(=O)/N=C(/N)NCCC[C@@H](NC(=O)C(c1ccccc1)c1ccccc1)C(=O)NCc1ccc(CNC(N)=O)cc1)CCNC(=O)CCC(=O)NCCOCCOCCNC(=O)/N=C(/N)NCCC[C@@H](NC(=O)C(c1ccccc1)c1ccccc1)C(=O)NCc1ccc(CNC(N)=O)cc1"
endpoint_name = "Ki"
observed = 210

[[record]]
molecular_string = "NCCN(CCNC(=O)CCC(=O)NCCOCCOCCNC(=O)/N=C(/N)NCCC[C@@H](NC(=O)C(c1ccccc1)c1ccccc1)C(=O)NCc1ccc(O)cc1)CCNC(=O)CCC(=O)NCCOCCOCCNC(=O)/N=C(/N)NCCC[C@@H](NC(=O)C(c1ccccc1)c1ccccc1)C(=O)NCc1ccc(O)cc1"
endpoint_name = "Ki"
observed = 37

[[record]]
molecular_string = "NCCN(CCNC(=O)CCCC(=O)NCCOCCOCCNC(=O)/N=C(/N)NCCC[C@@H](NC(=O)C(c1ccccc1)c1ccccc1)C(=O)NCc1ccc(O)cc1)CCNC(=O)CCCC(=O)NCCOCCOCCNC(=O)/N=C(/N)NCCC[C@@H](NC(=O)C(c1ccccc1)c1ccccc1)C(=O)NCc1ccc(O)cc1"
endpoint_name = "Ki"
observed = 50


Given item "NCCN(CCNC(=O)c1ccc(C(=O)NCCOCCOCCNC(=O)/N=C(/N)NCCC[C@@H](NC(=O)C(c2ccccc2)c2ccccc2)C(=O)NCc2ccc(O)cc2)cc1)CCNC(=O)c1ccc(C(=O)NCCOCCOCCNC(=O)/N=C(/N)NCCC[C@@H](NC(=O)C(c2ccccc2)c2ccccc2)C(=O)NCc2ccc(O)cc2)cc1" , the value recorded as its Ki is 48

* * *

Molecular target: Neuropeptide Y receptor type 5 (Homo sapiens)
Sequence (Q15761 whole entry): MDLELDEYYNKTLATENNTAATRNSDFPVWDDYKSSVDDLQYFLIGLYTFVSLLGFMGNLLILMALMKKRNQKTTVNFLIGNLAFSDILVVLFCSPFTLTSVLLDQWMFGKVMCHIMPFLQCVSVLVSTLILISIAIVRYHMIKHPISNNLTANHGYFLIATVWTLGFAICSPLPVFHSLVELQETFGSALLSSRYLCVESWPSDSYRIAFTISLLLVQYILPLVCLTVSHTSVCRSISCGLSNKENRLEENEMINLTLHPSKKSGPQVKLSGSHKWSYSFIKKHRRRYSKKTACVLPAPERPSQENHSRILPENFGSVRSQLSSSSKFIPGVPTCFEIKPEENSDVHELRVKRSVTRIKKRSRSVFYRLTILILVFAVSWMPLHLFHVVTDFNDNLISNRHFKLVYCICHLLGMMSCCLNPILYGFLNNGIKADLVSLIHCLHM
endpoint-name: Ki

[[record]]
molecular_string = "NCCNC(=O)CCC(=O)NCCNC(=O)CCC(=O)NCCNC(=O)/N=C(\\N)NCCC[C@H](NC(=O)C(c1ccccc1)c1ccccc1)C(=O)NCc1ccc(CNC(N)=O)cc1"
observed = "> 5 µM"

[[record]]
molecular_string = "N=C(N)NCCC[C@@H](NC(=O)C(c1ccccc1)c1ccccc1)C(=O)NCc1ccc(CNC(=O)NCCCCNC(=O)CCCC(=O)NCCN(CCN)CCNC(=O)CCCC(=O)NCCCCNC(=O)NCc2ccc(CNC(=O)[C@@H](CCCNC(=N)N)NC(=O)C(c3ccccc3)c3ccccc3)cc2)cc1"
observed = "> 5 µM"


Could you now consider this next molecule?
Data point: "NCCN(CCNC(=O)c1ccc(C(=O)NCCOCCOCCNC(=O)/N=C(/N)NCCC[C@@H](NC(=O)C(c2ccccc2)c2ccccc2)C(=O)NCc2ccc(O)cc2)cc1)CCNC(=O)c1ccc(C(=O)NCCOCCOCCNC(=O)/N=C(/N)NCCC[C@@H](NC(=O)C(c2ccccc2)c2ccccc2)C(=O)NCc2ccc(O)cc2)cc1" ; Ki = > 5 µM
